Assay: Biodistribution studies
Assay type: in vivo
Conditions: female, BALB/c nude, mouse, liver, iv, total radioactivity; 1 h postinjection, ~7.4 MBq i.v., n = 5, mean ± SD; read-out: Liver uptake
Description: HepG2 cells were grown in high glucose DMEM culture medium. […] Nude mice bearing human HepG2 hepatoma were randomly divided into 5 groups and injected with ~7.4 MBq of ^99mTc-NGR with or without excess unlabelled NGR peptide (20 mg/kg). […] The radioactivity in the HepG2 tumor, major organs, and muscle were collected and weighed wet with tubes (%ID/g). Mean uptake (%ID/g) for a group of animals was calculated with standard deviations. Values were expressed as mean ± SD (n = 5/group).
Where a SMILES comes first, the peptide text is derived from it. Bridges are numbered along the chain shown (N, C = ends).
RESULT TYPE: tissue uptake at 1 h (%ID/g)

>>> reported_measurement("N=C(N)NCCC[C@@H]1NC(=O)CNC(=O)[C@H](CC(N)=O)NC(=O)[C@@H](NC(=O)CNC(=O)CNC(=O)[C@@H](N)Cc2ccc(O)cc2)CSSC[C@@H](C(=O)O)NC1=O [^99mTc-NGR, metal not drawn] (H-YGGCNGRC-OH; disulfide 4-8)")
4.07

----------
Assay: Biodistribution studies
Assay type: in vivo
Details: female, BALB/c nude, mouse, intestine, iv, total radioactivity; 12 h postinjection, ~7.4 MBq i.v., n = 5, mean ± SD; read-out: Intestine uptake
Where a SMILES comes first, the peptide text is derived from it. Bridges are numbered along the chain shown (N, C = ends).
RESULT TYPE: tissue uptake at 12 h

>>> reported_measurement("N=C(N)NCCC[C@@H]1NC(=O)CNC(=O)[C@H](CC(N)=O)NC(=O)[C@@H](NC(=O)CNC(=O)CNC(=O)[C@@H](N)Cc2ccc(O)cc2)CSSC[C@@H](C(=O)O)NC1=O [^99mTc-NGR, metal not drawn] (H-YGGCNGRC-OH; disulfide 4-8)")
"1.6 %ID/g"

----------
Test: Biodistribution studies
Type: in vivo
Settings: female, BALB/c nude, mouse, heart, iv, total radioactivity; Blocking (1 h), coinjection of unlabelled NGR 20 mg/kg, n = 5, mean ± SD; read-out: Heart uptake
Where a SMILES comes first, the peptide text is derived from it. Bridges are numbered along the chain shown (N, C = ends).
RESULT TYPE: tissue uptake at 1 h (%ID/g)

>>> reported_measurement("N=C(N)NCCC[C@@H]1NC(=O)CNC(=O)[C@H](CC(N)=O)NC(=O)[C@@H](NC(=O)CNC(=O)CNC(=O)[C@@H](N)Cc2ccc(O)cc2)CSSC[C@@H](C(=O)O)NC1=O [^99mTc-NGR, metal not drawn] (H-YGGCNGRC-OH; disulfide 4-8)")
2.73

----------
Experiment: Biodistribution studies
Assay type: in vivo
Details: female, BALB/c nude, mouse, spleen, total radioactivity; Blocking (1 h), coinjection of unlabelled NGR 20 mg/kg, n = 5, mean ± SD; read-out: Spleen uptake
Where a SMILES comes first, the peptide text is derived from it. Bridges are numbered along the chain shown (N, C = ends).
RESULT TYPE: tissue uptake at 1 h (%ID/g)

>>> reported_measurement("N=C(N)NCCC[C@@H]1NC(=O)CNC(=O)[C@H](CC(N)=O)NC(=O)[C@@H](NC(=O)CNC(=O)CNC(=O)[C@@H](N)Cc2ccc(O)cc2)CSSC[C@@H](C(=O)O)NC1=O [^99mTc-NGR, metal not drawn] (H-YGGCNGRC-OH; disulfide 4-8)")
1.89
